Give measured melting point for each item. Keep answers brief.

Which melting point value is on record for CC(=O)N[C@H]1CCc2cccc3c2N(C1=O)[C@H](C(=O)N[C@H]1CC(=O)OC1O)C3 (stereo partly shown) [Example 94] ?
210 to 215 °C (dec.)

For the compound shown here, CC(=O)N[C@@H](CC(=O)O)C(=O)N[C@H]1CCc2cccc3c2N(C1=O)[C@H](C(=O)N[C@H]1CC(=O)OC1O)C3 (stereo partly shown) [Example 82] , give the reported melting point.
160 to 175 °C (dec.)

melting point for O=C(O)CCC(=O)N[C@H]1CCc2cccc3c2N(C1=O)[C@H](C(=O)N[C@H]1CC(=O)OC1O)C3 (stereo partly shown) [Example 85] ?
145 to 160 °C (dec.)

Looking for the measured melting point of O=C1C[C@H](NC(=O)[C@@H]2Cc3cccc4c3N2C(=O)[C@@H](NC(=O)c2ccccc2)CC4)C(O)O1 (stereo partly shown) [Example 100] , can you help?
204 to 205 °C (dec.)

###

Could you please report measured melting point for the items listed next?

Suppose we examine the molecule O=C1C[C@H](NC(=O)[C@@H]2Cc3cccc4c3N2C(=O)[C@@H](NC(=O)OCc2ccccc2)CC4)C(O)O1 (stereo partly drawn) ; what melting point value has been reported?
101 to 104 °C

Form field: reported melting point of O=C(O)C[C@H](NC(=O)[C@@H]1Cc2cccc3c2N1C(=O)[C@@H](NC(=O)OCc1ccccc1)CC3)C(=O)COP(=O)(c1ccccc1)c1ccccc1
109 to 111 °C (dec.)

# lookup: melting point of O=C(CCc1ccccc1)N[C@H]1CCc2cccc3c2N(C1=O)[C@H](C(=O)N[C@H]1CC(=O)OC1O)C3 (stereo partly drawn)
78 to 81 °C

Looking for the measured melting point of O=C1C[C@H](NC(=O)C2CCc3cccc4c3N2C(=O)[C@@H](NC(=O)OCc2ccccc2)CC4)C(O)O1 (stereo partly drawn) , can you help?
120 to 123 °C (dec.)

If you can, please state the reported melting point value of O=C1C[C@H](NC(=O)[C@@H]2Cc3cccc4c3N2C(=O)[C@@H](NC(=O)c2cccc3ccccc23)CC4)C(O)O1 (stereo partly drawn) .
202 to 203 °C (dec.)

Fill blank: measured melting point of the molecule O=C(O)C[C@H](NC(=O)OCc1ccccc1)C(=O)N[C@H]1CCc2cccc3c2N(C1=O)[C@H](C(=O)N[C@H]1CC(=O)OC1O)C3 (stereo partly drawn) is ____.
140 to 144 °C (dec.)
